- assayed target: WT HIV-1 protease (Human immunodeficiency virus type 1 group M subtype B (isolate HXB2) (HIV-1), UniProt P04585)
- protocol description: Assay for inhibition of microbial expressed HIV protease (Procedure A, peptide substrate, HPLC fluorescence detection)
- assay setup: WT HIV-1 protease 10 pM, substrate 400 micromolar, pH 5.5, 30 min preincubation, 1 hour at 30° C.; read-out: Enzyme inhibition IC50
Field: label. Allowed values: t (IC50 < 4 nM) or f (IC50 >= 4 nM).

molecule | category label
COC(=O)N[C@H](C(=O)N[C@H](c1ccc([C@@H](CO)N(CCC(C)(C)C)S(=O)(=O)c2ccc3ocnc3c2)s1)C(F)(F)F)C(c1ccccc1)c1ccccc1 | t

Q) Is IC50 of "COC(=O)N[C@H](C(=O)N[C@H](c1ccc([C@@H](CO)N(CCC(C)(C)C)S(=O)(=O)c2ccc3ncsc3c2)s1)C(F)(F)F)C(c1ccccc1)c1ccccc1" strictly below 4 nM?
A) t

Q) What about CC(C)CN(C(CO)c1ccc(CNC(=O)C(NC(=O)c2ccccc2)C(c2ccccc2)c2ccnc3ccccc23)s1)S(=O)(=O)c1ccc2ncsc2c1 (stereo not drawn) ?
A) f

Q) What about "COC(=O)N[C@H](C(=O)N[C@@H](C)c1ccc([C@@H](CO)N(CC(C)C)S(=O)(=O)c2ccc(N)cc2)s1)C(c1ccccc1)c1ccccc1" ?
A) f

Q) What about "COC(=O)N[C@H](C(=O)NCc1ccc([C@@H](CO)N(CC2CC(F)(F)C2)S(=O)(=O)c2ccc3cc[nH]c(=O)c3c2)s1)C(c1ccccc1)c1ccccc1" ?
A) t
